// provenance: patent US9346815B2

# System: JAK1-dependent STAT6 phosphorylation downstream of IL-13 stimulation in BEAS-2B human bronchial epithelial cells
# assayProtocol: JAK1 pathway assay in BEAS-2B cells (IL-13-pSTAT6, MSD)
# Type: cell-based
# settings: read-out: IL13-pSTAT6 EC50 (uM)_BEAS-2B
# Experimental: JAK1 Pathway Assay in Cell Lines was Carried Out as Follows: Inhibitor potency (EC50) was determined in cell-based assays designed to measure JAK1 dependent STAT phosphorylation. […] Test compounds were serially diluted 1:2 in DMSO and then diluted 1:50 in medium just before use. […] Then, cells were stimulated with human recombinant cytokine at their respective EC90 concentrations, as previously determined for each individual lot. […]
Readings of EC50 for the listed molecules
Output spec: scalar in µM, unitless text.

COCCN1CCN(C(=O)Cn2cc(NC(=O)c3cnn4cccnc34)c(-c3cc(Cl)ccc3OC(F)F)n2)CC1    0.0516
O=C(Nc1cn(CCNCc2ncco2)nc1-c1cc(Cl)ccc1OC(F)F)c1cnn2cccnc12    0.0352
O=C(Nc1cn(CC(=O)N2CCC(NC(c3ccccc3)C(F)(F)F)CC2)nc1-c1cc(Cl)ccc1OC(F)F)c1cnn2cccnc12 (centres unmarked)    0.0973
CN(C)C(=O)[C@@H]1CCCN1C1CCN(C(=O)Cn2cc(NC(=O)c3cnn4cccnc34)c(-c3cc(Cl)ccc3OC(F)F)n2)CC1    0.0987
Nc1nn2cccnc2c1C(=O)Nc1cn([C@H]2C[C@@H](N)C2)nc1-c1cc(Cl)ccc1OC(F)F    0.0308
CN1CCCC2CN(C(=O)Cn3cc(NC(=O)c4cnn5cccnc45)c(-c4cc(Cl)ccc4OC(F)F)n3)CC21 (centres unmarked)    0.0068

Identify measured EC50 associated with Nc1nn2cccnc2c1C(=O)Nc1cn(C2CCNCC2)nc1-c1cc(Cl)ccc1OC(F)F
0.0195

Identify measured EC50 associated with CN(CCn1cc(NC(=O)c2cnn3cccnc23)c(-c2cc(Cl)ccc2OC(F)F)n1)CC1CCC(=O)O1 (centres unmarked)
0.0424

Identify measured EC50 associated with N#CCCNC1CCN(C(=O)Cn2cc(NC(=O)c3cnn4cccnc34)c(-c3cc(Cl)ccc3OC(F)F)n2)CC1
0.014

Identify measured EC50 associated with CN(C)CCN1CCN(C(=O)Cn2cc(NC(=O)c3cnn4cccnc34)c(-c3cc(Cl)ccc3OC(F)F)n2)CC1
0.0755

Identify measured EC50 associated with CCN(Cc1ccnc(Cl)c1)C(=O)Cn1cc(NC(=O)c2cnn3cccnc23)c(-c2cc(Cl)ccc2OC(F)F)n1
0.0142

Identify measured EC50 associated with CC1CN(C(=O)Cn2cc(NC(=O)c3cnn4cccnc34)c(-c3cc(Cl)ccc3OC(F)F)n2)CCN1C (centres unmarked)
0.0325

Identify measured EC50 associated with O=C(O)CNC1CCN(C(=O)Cn2cc(NC(=O)c3cnn4cccnc34)c(-c3cc(Cl)ccc3OC(F)F)n2)CC1
7.56
